Molecular target: T1, human CLD18A1 (human, UniProt P56856 1-261)
T1 construct: on transfected HEK293 or CHO cells; also called claudin 18 splice variant 1; NP-057453
Assay: flow cytometry on HEK293-CLD18A1 cells

binder	binding result
163E12 (antibody, IgG3, V domains shown, mouse monoclonal IgG3, kappa; also called 182-D1106-294; DSM ACC2809) VH: QIQLVQSGPELKKPGETVKISCKASGYTFTNYGMNWVKQAPGKGLKWMGWINTNTGEPTYAEEFKGRFAFSLETSASTAYLQINNLKNEDTATYFCARLGFGNAMDYWGQGTSVTVSS VL: DIVMTQSPSSLTVTAGEKVTMSCKSSQSLLNSGNQKNYLTWYQQKPGQPPKLLIYWASTRESGVPDRFTGSGSGTDFTLTISSVQAEDLAVYYCQNDYSYPLTFGAGTKLELK	no binding
43A11 (antibody, IgG2a, V domains shown, mouse monoclonal IgG2a, kappa; also called 182-D1106-062; DSM ACC2742) VH: QVQLQQSGAELMKPGASVKISCKATGYTFSSYWIEWVKQRPGHGLEWIGEILPGSGSTNYNEKFKGKATFTADTSSNTAYMQLSSLTSEDSAVYYCARYDYPWFAYWGQGTLVTVSA VL: QIVLTQSPAIMSASPGEKVTITCSASSSVSYMHWFQQKPGTSPKLWIYSTSNLASGVPARFSGSGSGTSYSLTISRMEAEDAATYYCQQRSSYPPTFGGGTKLEIK	no binding
ch-163E12 (antibody, V domains shown, mouse/human chimeric, human gamma-1 and kappa constant regions; peroxidase-conjugated in the peptide scan; also called chimeric 163E12) VH: QIQLVQSGPELKKPGETVKISCKASGYTFTNYGMNWVKQAPGKGLKWMGWINTNTGEPTYAEEFKGRFAFSLETSASTAYLQINNLKNEDTATYFCARLGFGNAMDYWGQGTSVTVSS VL: DIVMTQSPSSLTVTAGEKVTMSCKSSQSLLNSGNQKNYLTWYQQKPGQPPKLLIYWASTRESGVPDRFTGSGSGTDFTLTISSVQAEDLAVYYCQNDYSYPLTFGAGTKLELKR	no binding
